target: PD-L1 expressed on CHO cells (human, UniProt Q9NZQ7 19-290); experiment: cell-based or functional assay
Sequence (Q9NZQ7 19-290 limits assumed): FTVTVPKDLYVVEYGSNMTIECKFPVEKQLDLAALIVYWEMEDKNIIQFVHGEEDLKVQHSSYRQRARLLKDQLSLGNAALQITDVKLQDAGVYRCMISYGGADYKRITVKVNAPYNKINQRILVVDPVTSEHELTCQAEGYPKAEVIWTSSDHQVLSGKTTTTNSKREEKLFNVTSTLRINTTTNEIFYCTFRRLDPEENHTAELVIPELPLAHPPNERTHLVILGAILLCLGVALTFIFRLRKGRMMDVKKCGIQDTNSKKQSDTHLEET
Hi there, I'd appreciate the recorded Promega assay antagonist (EC50, ug/mL) for every entry that follows.

The examples below pair each entry with its known result.
>  <binder>
antibody A17 (antibody, V domains shown, Tested as full-length mAb made in CHO cells; also called L17H17) VH: QVQLQESGPGLVKPSETLSLTCTVSGGSISGYSWSWIRQPPGKGLEWIGYIYYSGSTNNNPSLKSRVTISVDTSKNQFSLKLSSVTAADTAVYFCARDDGIAVAGYYFYYGLDVWGQGTTVTVSS VL: DIQMTQSPSSLSASVGDRVTITCRASQGIRNDLGWYQQKPGKAPKRLIYAASSLQSGVPSRFSGSGSGTEFTLTISSLQPEDFATYYCLQHNTYPWTFGQGTKVEIK

>  <result>
2.25 µg/mL

$$$$
>  <binder>
antibody A25 (antibody, V domains shown, Derived from a mutagenesis screen of A1; Tested as full-length antibody; also called L25H25) VH: QVQLVQSGAEVKKPGASVKVSCKASGFTFTSYDINWVRQATGQGLEWMGWMHPKSGITGYAQKFQGRVTMTRNTSISTAYMELSNLSSEDTAVYFCARYNYVSGSYDYWGQGTLVTVSS VL: EIVMTQSPATLSLSPGERATLSCWASQSVSSSYLSWYQQKPGQAPRLLIYGASTRATGIPARFSGSGSGTDFTLTISSLQPEDFAVYYCQQDYYLPYTFGQGTKLEIK

>  <result>
0.063 µg/mL

$$$$
>  <binder>
antibody A23 (antibody, V domains shown) VH: QVQLVQSGAEVKKPGASVKVSCKASGYTFTNYGISWVRQAPGQGLEWMGWISAYNGNTNYEQKVQGRVTMTTDTSTSTAYMELRSLRSDDTAVYYCARSLTGLFDYWGQGTLVTVSS VL: DIQMTQSPSSLSASVGDRVTITCRASQGIRNDLGWYQQKPGKAPKRLIYAASSLQSGVPSRFSGSGSGTEFTLTISSLQPEDFATYYCLQHNSYPMFTFGQGTKLEIK

>  <result>
9.8 µg/mL

$$$$
>  <binder>
antibody A12 (antibody, V domains shown, Tested as full-length mAb made in CHO cells; also called L12H12) VH: QVQLVESGGGVVQPGRSLRLSCAASGFTFSSYGMHWVRQAPGKGLEWVAVIWYDGSNKSYADSVKGRFTFSRDNSKNTLYLQMNSLRAEDTAVYYCARDMDYFGLDVWGQGTTVTVSS VL: DIQMTQSPSSLSASVGDRVTITCRASQGIRNDLGWYQQKPGKAPKRLIYAASSLQSGVPSRFSGSGSGTEFTLTISSLQPEDFATYYCLQHNSYPRTFGQGTKVEIK

>  <result>
3.13 µg/mL

$$$$
>  <binder>
antibody A4 (antibody, V domains shown, Tested as full-length mAb made in CHO cells; also called L4H4) VH: QVQLVESGGGVVQPGRSLRLSCAASGFTFSNYGMHWVRQAPGKGLEWVAVIWFDGNTKYYTDSVKGRFTISRDNSKNTLYLQMNSLRAEDTAVYYCARDITMVPMDVWGQGTTVTVSS VL: AIQMTQSPSSLSASVGDRVTITCRASQDIRNDLGWYQQQPGKAPKLLIYAASSLQSGVPSRFSGSGSGTDFTLTISSLQPEDFATYYCLQDYNYPPTFGQGTKVEIK

>  <result>
0.198 µg/mL

$$$$

Return reported Promega assay antagonist (EC50, ug/mL) values for all items listed beneath this line.
1. antibody A9 (antibody, V domains shown, Tested as full-length mAb made in CHO cells; also called L9H9) VH: QVQLVESGGGVVQPGRSLRLSCAASGFTFSSYGMHWVRQAPGKGLEWVAVIWFDGNNKYYADSVKGRFTISRDNSKNTLYLQMNSLRAEDTAVYYCARDVTTVPFDYWGQGTLVTVSS VL: EIVMTQSPATLSLSPGERATLSCRASQSVSSSYLSWYQQKPGQAPRLLMYGASTRATGIPARFSGSGSGTDFTLTISSLQPEDFAVYYCQQDYNLPYTFGQGTKLEIK
2. antibody A2 (antibody, V domains shown, Tested as full-length mAb made in CHO cells; also called L2H2) VH: EVQLVESGGGLVQPGGSLRLSCAASGFTFSRYDMSWVRQAPGKGLEWVSTISGSGGSTYYADSVKGRFTISRDNSKTTLYLQMISLRAEDTAVYYCAKAGFTMIVVAFDYWGQGTLVTVSS VL: DIQMTQSPSSLSASVGDRVTITCRASQGISNYLAWFQQKPGKAPKSLIYAASSLQSGVPSKFSGSGSGTDFTLTISSLQPEDFATYYCQQYNSYPYTFGQGTKLEIK
3. antibody A14 (antibody, V domains shown, Tested as full-length mAb made in CHO cells; also called L14H14) VH: QVQLVESGGGVVQPGRSLRLSCAASGFTFSSYGMHWVRQAPGKGLEWVAVIWYDGSVKYYADSVKGRFTISRDNSKNTLYLQMNSLRAEDTAVYYCARDRTGVPFDYWGQGTLVTVSS VL: EIVMTQSPATLSLSPGERATLSCRASQSVSSSYLSWYQQKPGQAPRLLIYGASTRATGIPARFSGSGSGTDFTLTISSLQPEDFAVYYCQQDYNLPHTFGQGTKLEIK
4. antibody A7 (antibody, V domains shown, Tested as full-length mAb made in CHO cells; also called L7H7) VH: QVQLQESGPGLVKPSETLSLTCTVSGGSISSYYWSWIRQPPGKGLEWIGYIFYSGSTNYNPSLKSRVTISVDTSKNQFSLKLSSVTAADTAVYFCARDNWHDGGVDYWGQGTLVTVSS VL: EIVMTQSPTTLSLSPGERATLSCRASQSVSSSYLSWYQQKPGQAPRLLIYGASTRATGIPARFSGSGSGTDFTLTISSLQPEDFAVYYCQQDYNLRTFGQGTKVEIK
5. antibody A11 (antibody, V domains shown, Tested as full-length mAb made in CHO cells; also called L11H11) VH: QVQLVESGGGVVQPGRSLRLSCAASGFTFSSYGIHWVRQAPGKGLEWVAVIWSDGSNKFYADSVKGRFTISRDNSKNTLFLQMSSLRAEDTAVYYCARDIAAAIDYWGQGTLVTVSS VL: AIQMTQSPSSLSASVGDRVTITCRASQGIRNDLGWYQQKPGKAPKLLIYAASSLQSGVPSRFSGSGSGTDFTLTISSLQPEDFATYYCLQDYNYPYTFGQGTKLEIK

**A:**
["0.28 µg/mL", "0.042 µg/mL", "1.23 µg/mL", "0.151 µg/mL", "0.158 µg/mL"]

Source listed as patent US20220056137A1.
